biological target: hTRPV3 (Homo sapiens (Human), UniProt Q8NET8); test: Whole-cell patch clamp, hTRPV3 Phase 1 / Phase 2 currents; type: cell-based; conditions: Phase 1 current, inward, whole-cell patch clamp; read-out: hTRPV3 Patch P1 Inwd
Sequence (Q8NET8 whole entry): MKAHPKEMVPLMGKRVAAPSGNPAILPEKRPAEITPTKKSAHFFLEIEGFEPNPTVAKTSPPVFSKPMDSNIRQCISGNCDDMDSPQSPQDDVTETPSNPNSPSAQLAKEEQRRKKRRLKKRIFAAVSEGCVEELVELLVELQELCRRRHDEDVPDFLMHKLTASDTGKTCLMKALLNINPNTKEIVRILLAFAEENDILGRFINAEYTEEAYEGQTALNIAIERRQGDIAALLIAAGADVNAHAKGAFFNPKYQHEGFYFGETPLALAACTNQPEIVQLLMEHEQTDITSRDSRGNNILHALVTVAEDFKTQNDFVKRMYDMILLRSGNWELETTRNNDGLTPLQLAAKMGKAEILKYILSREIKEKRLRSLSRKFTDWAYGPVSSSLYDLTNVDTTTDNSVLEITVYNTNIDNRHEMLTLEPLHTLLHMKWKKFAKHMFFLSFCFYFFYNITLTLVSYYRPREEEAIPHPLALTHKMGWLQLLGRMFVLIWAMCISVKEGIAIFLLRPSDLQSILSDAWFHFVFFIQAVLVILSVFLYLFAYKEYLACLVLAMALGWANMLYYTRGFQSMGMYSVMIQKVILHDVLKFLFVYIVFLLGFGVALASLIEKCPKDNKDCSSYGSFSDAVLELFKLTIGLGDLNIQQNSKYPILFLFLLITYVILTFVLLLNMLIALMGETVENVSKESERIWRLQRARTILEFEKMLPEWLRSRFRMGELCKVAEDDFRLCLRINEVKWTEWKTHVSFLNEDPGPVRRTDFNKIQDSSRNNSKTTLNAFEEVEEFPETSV
pIC50: −log10 of the molar value.
Measured Parameter: pIC50

>>> value_reported("NC(=O)c1cc(-c2ccccc2)ccc1N1CCC(Oc2ccc3ccccc3n2)C1=O (centres unmarked)")
"< 6.00"
>>> value_reported("NC(=O)c1cc(-c2ccccc2Cl)ccc1N1CC[C@H](Oc2ccc(C(F)(F)F)cn2)C1")
"6.00 to 7.00"

Give pIC50 for each of the items listed below.
1. OCc1cc(Oc2ccc(Cl)cc2)ccc1N1CC[C@H](Oc2ncccc2Cl)C1
2. CCc1ccccc1C(=O)c1ccc(N2CC[C@H](Nc3ncccc3Cl)C2)c(CCO)c1
3. Cc1ccccc1C(=O)c1ccc(N2CC[C@H](Oc3ncccc3F)C2)c(CO)c1
4. OCCc1cc(C(O)c2ccc(Cl)cc2)ccc1N1CC[C@H](Oc2ncccc2Cl)C1 (some centres unmarked)

(A)
1. 7.00 to 8.00
2. < 6.00
3. 6.00 to 7.00
4. < 6.00
